System: Salmonella typhimurium Ames mutagenicity, literature compiled
Experiment: DSSTox (CPDBAS) Carcinogenic Potency Database Salmonella Mutagenicity
Text: The Carcinogenic Potency Database (CPDB) is a unique and widely used international resource of the results of over 6500 chronic, long-term animal cancer tests on over 1500 chemical substances. The CPDB provides easy access to the bioassay literature, with qualitative and quantitative analyses of both positive and negative experiments that have been published over the past 50 years in the general literature and by the National Cancer Institute/National Toxicology Program. […]
The source made the active and inactive calls.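 Rule for the calls: active = chemicals rated mutagenic or weakly mutagenic in the Salmonella bacterial test by one literature review, or positive overall by another; inconclusive = no clear call, values can overlap the other calls; inactive = the rest.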
Choose one outcome from this list and give only that: true (active), false (inactive)

CC1=C2C(=CO[C@@H](C)[C@@H]2C)C(=O)C(C(=O)O)=C1O :: false
COc1ccc(N)cc1N :: true

Per the records of this test, what outcome belongs to NC(N)=S ?
false

Per the records of this test, what outcome belongs to CC1=CC(=C(c2ccc(N)cc2)c2ccc(N)cc2)C=CC1=N ?
true

Per the records of this test, what outcome belongs to CNN ?
true

Per the records of this test, what outcome belongs to COP(=O)(OC)O/C(=C\Cl)c1cc(Cl)c(Cl)cc1Cl ?
false

Per the records of this test, what outcome belongs to CCN(Cc1cccc(S(=O)(=O)[O-])c1)c1ccc(C(=C2C=CC(=[N+](C)C)C=C2)c2ccc(N(CC)Cc3cccc(S(=O)(=O)O)c3)cc2)cc1 ?
true

Per the records of this test, what outcome belongs to Cc1cc(O)c2c(c1)C(=O)c1cc(O)cc(O)c1C2=O ?
true

Per the records of this test, what outcome belongs to CC(C)CN(N=O)C(=N)N[N+](=O)[O-] ?
true

Per the records of this test, what outcome belongs to CC(O)c1ccccc1 (stereo unspecified) ?
false

Per the records of this test, what outcome belongs to OCC(CO)(CBr)CBr ?
true

Per the records of this test, what outcome belongs to CC(C)=CCC/C(C)=C/C=O ?
false
